Each entry below carries its recorded Emax.
Target: BRG-1 (Homo sapiens, UniProt P51532)
Sequence (P51532 whole entry): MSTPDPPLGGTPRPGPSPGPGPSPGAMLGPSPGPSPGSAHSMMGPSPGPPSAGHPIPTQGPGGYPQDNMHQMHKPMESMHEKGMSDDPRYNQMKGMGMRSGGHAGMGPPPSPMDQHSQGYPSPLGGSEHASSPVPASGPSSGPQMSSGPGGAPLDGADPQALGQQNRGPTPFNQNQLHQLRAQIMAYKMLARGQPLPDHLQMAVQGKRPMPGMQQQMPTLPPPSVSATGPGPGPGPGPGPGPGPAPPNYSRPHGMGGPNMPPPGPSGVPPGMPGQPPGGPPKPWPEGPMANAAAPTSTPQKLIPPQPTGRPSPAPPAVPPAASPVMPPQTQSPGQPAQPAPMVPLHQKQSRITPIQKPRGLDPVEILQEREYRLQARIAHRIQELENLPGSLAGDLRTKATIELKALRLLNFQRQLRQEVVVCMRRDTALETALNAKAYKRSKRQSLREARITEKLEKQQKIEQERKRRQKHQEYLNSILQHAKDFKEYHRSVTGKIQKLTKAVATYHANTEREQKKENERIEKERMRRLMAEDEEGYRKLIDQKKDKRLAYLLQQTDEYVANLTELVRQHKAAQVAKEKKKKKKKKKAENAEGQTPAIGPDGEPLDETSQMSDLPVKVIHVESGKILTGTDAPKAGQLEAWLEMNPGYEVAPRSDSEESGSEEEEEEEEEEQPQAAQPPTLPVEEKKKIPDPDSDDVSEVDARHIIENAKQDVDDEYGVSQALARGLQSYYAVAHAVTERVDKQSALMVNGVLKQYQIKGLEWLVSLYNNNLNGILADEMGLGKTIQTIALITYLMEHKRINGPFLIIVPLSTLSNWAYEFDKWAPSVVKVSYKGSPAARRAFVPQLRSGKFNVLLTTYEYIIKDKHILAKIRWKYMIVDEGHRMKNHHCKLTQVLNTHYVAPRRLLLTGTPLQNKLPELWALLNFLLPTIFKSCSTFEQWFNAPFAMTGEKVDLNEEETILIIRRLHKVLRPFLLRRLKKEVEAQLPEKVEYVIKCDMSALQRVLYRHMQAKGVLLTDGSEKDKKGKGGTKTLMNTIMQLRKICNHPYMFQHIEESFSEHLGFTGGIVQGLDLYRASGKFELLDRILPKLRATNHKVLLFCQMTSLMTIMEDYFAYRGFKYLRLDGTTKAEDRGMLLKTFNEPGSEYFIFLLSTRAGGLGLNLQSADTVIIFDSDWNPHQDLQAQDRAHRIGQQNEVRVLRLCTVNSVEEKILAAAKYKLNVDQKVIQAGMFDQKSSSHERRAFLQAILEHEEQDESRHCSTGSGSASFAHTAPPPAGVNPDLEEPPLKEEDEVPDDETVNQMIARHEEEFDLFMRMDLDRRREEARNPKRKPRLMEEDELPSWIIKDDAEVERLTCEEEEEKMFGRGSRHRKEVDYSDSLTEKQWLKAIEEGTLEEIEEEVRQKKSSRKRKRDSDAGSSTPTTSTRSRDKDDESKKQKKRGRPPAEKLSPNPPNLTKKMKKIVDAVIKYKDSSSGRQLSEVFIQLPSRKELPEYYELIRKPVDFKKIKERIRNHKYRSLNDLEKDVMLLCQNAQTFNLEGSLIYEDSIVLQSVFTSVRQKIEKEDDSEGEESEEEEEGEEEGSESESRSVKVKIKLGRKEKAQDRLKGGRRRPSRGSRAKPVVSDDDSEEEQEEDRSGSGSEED
Experiment: ATPase catalytic activity assay (ADP-Glo), BRG-1
Conditions: 1 h, read-out: BRG1 Max % Inhibition, ADP-Glo, 30 nM BRG-1, 400 μM ATP
assay.metric: Emax (%)

{"columns": ["compound", "assay.metric", "reported.result"],
 "data": [
  ["CN1C(=O)Cc2ccc(-c3ccc4cnc(CNC(=O)c5ccc6c(c5)[C@](C)(C#N)COC6)cc4n3)cc21", "Emax", 63],
  ["C[C@@]1(C#N)COCc2ccc(C(=O)NCc3cc(N4CCC5(C4)CN(c4ccccc4)C5)ccn3)cc21", "Emax", 26],
  ["C[C@@]1(C#N)COCc2ccc(C(=O)NCc3cc4nc(N5CCCCC5)ccc4cn3)cc21", "Emax", 71],
  ["C[C@@]1(C#N)COCc2ccc(C(=O)NCc3cc4nc(-c5cn(C6COC6)nc5C5CC5)ccc4cn3)cc21", "Emax", 66],
  ["CCC(C)(O)c1cccc(-c2ccc3cnc(CNC(=O)c4ccc5c(c4)[C@](C)(F)COC5)cc3n2)n1 (stereo partly shown)", "Emax", 52],
  ["C[C@@]1(C#N)COCc2ccc(C(=O)NCc3cc4cc(-c5ccccc5)ncc4cn3)cc21", "Emax", 46],
  ["CN(C)c1cccc(-c2ccc3nnc(CNC(=O)c4ccc5c(c4)[C@](C)(F)COC5)cc3n2)n1", "Emax", 96]
]}

---

Molecular target: BRM (Homo sapiens, UniProt P51531)
Sequence (P51531 whole entry): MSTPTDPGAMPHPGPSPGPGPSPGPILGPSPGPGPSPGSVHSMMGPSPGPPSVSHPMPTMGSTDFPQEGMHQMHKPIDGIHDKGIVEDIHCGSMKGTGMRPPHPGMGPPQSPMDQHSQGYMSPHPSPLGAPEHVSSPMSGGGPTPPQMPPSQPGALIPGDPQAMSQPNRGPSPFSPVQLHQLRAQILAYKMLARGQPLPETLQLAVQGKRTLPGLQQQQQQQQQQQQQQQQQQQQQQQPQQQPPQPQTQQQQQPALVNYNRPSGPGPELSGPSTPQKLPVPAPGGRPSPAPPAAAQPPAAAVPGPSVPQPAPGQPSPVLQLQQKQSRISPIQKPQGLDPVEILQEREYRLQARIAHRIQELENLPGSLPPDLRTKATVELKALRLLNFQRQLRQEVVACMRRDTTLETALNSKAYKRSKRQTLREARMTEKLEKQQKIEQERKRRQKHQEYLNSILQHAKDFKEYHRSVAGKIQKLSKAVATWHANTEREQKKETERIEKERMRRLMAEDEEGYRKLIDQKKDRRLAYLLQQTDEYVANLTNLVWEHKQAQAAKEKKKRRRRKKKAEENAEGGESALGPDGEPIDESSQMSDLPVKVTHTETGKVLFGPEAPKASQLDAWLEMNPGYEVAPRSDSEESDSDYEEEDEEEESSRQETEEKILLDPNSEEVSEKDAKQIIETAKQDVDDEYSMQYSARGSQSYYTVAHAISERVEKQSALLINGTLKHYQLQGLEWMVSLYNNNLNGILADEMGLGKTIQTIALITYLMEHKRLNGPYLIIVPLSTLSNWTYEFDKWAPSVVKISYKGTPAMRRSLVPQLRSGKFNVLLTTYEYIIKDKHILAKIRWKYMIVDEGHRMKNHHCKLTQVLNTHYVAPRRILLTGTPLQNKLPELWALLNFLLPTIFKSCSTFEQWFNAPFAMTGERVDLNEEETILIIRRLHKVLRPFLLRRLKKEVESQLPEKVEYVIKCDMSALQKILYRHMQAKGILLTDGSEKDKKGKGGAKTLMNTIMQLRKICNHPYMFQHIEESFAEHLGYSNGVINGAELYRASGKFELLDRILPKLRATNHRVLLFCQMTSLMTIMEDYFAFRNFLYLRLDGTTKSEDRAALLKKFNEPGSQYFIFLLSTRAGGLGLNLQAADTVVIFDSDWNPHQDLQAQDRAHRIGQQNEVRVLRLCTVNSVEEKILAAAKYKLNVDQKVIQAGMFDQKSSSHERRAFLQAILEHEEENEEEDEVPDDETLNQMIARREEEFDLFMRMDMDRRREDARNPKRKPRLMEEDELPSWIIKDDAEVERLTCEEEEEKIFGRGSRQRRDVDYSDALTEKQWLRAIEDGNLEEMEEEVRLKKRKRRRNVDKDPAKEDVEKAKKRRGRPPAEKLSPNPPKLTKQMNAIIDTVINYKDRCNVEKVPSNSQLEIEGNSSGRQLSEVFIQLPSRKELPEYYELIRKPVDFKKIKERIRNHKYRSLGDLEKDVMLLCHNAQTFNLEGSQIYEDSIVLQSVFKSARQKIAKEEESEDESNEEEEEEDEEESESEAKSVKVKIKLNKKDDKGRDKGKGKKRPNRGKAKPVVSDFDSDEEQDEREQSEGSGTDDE
Assay: ATPase catalytic activity assay (ADP-Glo), BRM
Details: BRM ATPase: IC50 (uM), 30 nM BRM, 400 μM ATP
assay.metric: IC50

{"columns": ["smiles.structure", "reported.result"],
 "data": [
  ["C[C@@]1(C#N)COCc2ccc(C(=O)NCc3ncc4ccc(-c5cncc(C6CC6)n5)cc4n3)cc21", "< 0.1 µM"],
  ["C[C@@]1(C#N)COCc2ccc(C(=O)NCc3cc4c(cn3)CCN(c3ccccn3)C4)cc21", "0.1 to 0.5 µM"],
  ["CNC(=O)c1cccc(-c2ccc3cnc(CNC(=O)c4ccc5c(c4)[C@](C)(C#N)COC5)cc3n2)n1", "< 0.1 µM"],
  ["C[C@@]1(F)COCc2ccc(C(=O)NCc3cc4nc(-c5ccnc(N6CCC6)n5)cnc4cn3)cc21", "< 0.1 µM"],
  ["CC(=O)N1CCOc2c(-c3ccc4cnc(CNC(=O)c5ccc6c(c5)[C@](C)(C#N)COC6)cc4n3)cccc21", "0.1 to 0.5 µM"],
  ["C[C@@]1(C#N)COCc2ccc(C(=O)NCc3cc4nc(-c5ccn6ncc(C(F)F)c6n5)ccc4cn3)cc21", "< 0.1 µM"],
  ["C[C@@]1(C#N)COCc2ccc(C(=O)NCc3cc4nc(-c5cccc(N6CCC6=O)c5)ccc4cn3)cc21", "< 0.1 µM"],
  ["Cn1ncc2ccc(-c3ccc4cnc(CNC(=O)c5ccc6c(c5)[C@](C)(C#N)COC6)cc4n3)cc2c1=O", "< 0.1 µM"],
  ["COc1c(-c2ccc3cnc(CNC(=O)c4ccc5c(c4)[C@](C)(C#N)COC5)cc3n2)cnn1C(F)F", "0.1 to 0.5 µM"],
  ["CN(C)C(=O)c1cccc(-c2ccc3cnc(CNC(=O)c4ccc5c(c4)[C@](C)(C#N)COC5)cc3n2)n1", "0.1 to 0.5 µM"],
  ["Cn1ccc(-c2ccc3cnc(CNC(=O)c4ccc5c(c4)[C@](C)(C#N)COC5)cc3n2)n1", "> 1 µM"],
  ["C[C@@]1(C#N)COCc2ccc(C(=O)NCc3cc4c(cn3)CCN(c3ccnc(N5CCC5)c3F)C4)cc21", "0.1 to 0.5 µM"],
  ["C[C@@]1(C#N)COCc2ccc(C(=O)NCc3cc(OCc4cc(F)c5c(c4)CCO5)ccn3)cc21", "< 0.1 µM"],
  ["CO[C@H]1CCN(c2cncc(-c3ccc4cnc(CNC(=O)c5ccc6c(c5)[C@](C)(F)COC6)cc4c3)n2)C1", "< 0.1 µM"],
  ["O=C(NCc1cc(C#Cc2ccccc2)ccn1)c1ccc2c(c1)[C@](F)(C(F)F)COC2", "> 1 µM"],
  ["C[C@@]1(F)COCc2ccc(C(=O)NCc3cc4nc(-c5cccc(C6CC6)n5)ccc4nn3)cc21", "< 0.1 µM"],
  ["COc1ccc(-c2ccc3cnc(CNC(=O)c4ccc5c(c4)[C@](C)(C#N)COC5)cc3n2)cc1", "< 0.1 µM"],
  ["C[C@@]1(C#N)COCc2ccc(C(=O)NCc3cc4cc(-c5ccccc5)ccc4cn3)cc21", "0.1 to 0.5 µM"],
  ["COc1nn(C)cc1-c1ccc2nnc(CNC(=O)c3ccc4c(c3)[C@](C)(F)COC4)cc2n1", "< 0.1 µM"],
  ["C[C@@]1(F)COCc2ccc(C(=O)NCc3cc4nc(-c5cccc(C(F)F)n5)ccc4nn3)cc21", "< 0.1 µM"],
  ["CC(C)(O)C#Cc1cccc(-c2ccc3cnc(CNC(=O)c4ccc5c(c4)[C@](C)(C#N)COC5)cc3n2)n1", "0.1 to 0.5 µM"],
  ["COc1nn(C2COC2)cc1-c1ccc2cnc(CNC(=O)c3ccc4c(c3)[C@](C)(F)COC4)cc2n1", "< 0.1 µM"],
  ["C[C@@]1(C#N)COCc2ccc(C(=O)NCc3cc(OCc4ccccn4)ccn3)cc21", "> 1 µM"],
  ["C[C@@]1(F)COCc2ncc(C(=O)NCc3cc4nc(-c5ccccc5)sc4cn3)cc21", "0.1 to 0.5 µM"],
  ["C[C@@]1(C#N)COCc2ccc(C(=O)NCc3cc4nc(-c5ccccc5)cnc4cn3)cc21", "< 0.1 µM"],
  ["C[C@@]1(F)COCc2ccc(C(=O)NCc3cc4nc(-c5cccc(N6CCCC6=O)n5)cnc4cn3)cc21", "< 0.1 µM"],
  ["Cn1ncc2c1CCN(c1ccc3cnc(CNC(=O)c4ccc5c(c4)[C@](C)(C#N)COC5)cc3n1)C2", "0.1 to 0.5 µM"],
  ["[2H]C1([2H])OCc2ncc(C(=O)NCc3cc4nc(-c5cncc(C6CC6)n5)ccc4cn3)cc2[C@]1(C)F", "< 0.1 µM"],
  ["COc1ncccc1-c1nc2cc(CNC(=O)c3ccc4c(c3)[C@](C)(C#N)COC4)ncc2s1", "0.1 to 0.5 µM"]
]}
